Each entry below carries its reported Population Mitotic Cells (%).
# Test system: U2OS
# assay-procedure: Multiplex assay against U2OS
# Format: toxicity, cell-based
# condition-label: human, 24 h, 1 µM, compound concentration 1 uM, replicate 1

molecule	Population Mitotic Cells (%)
CCOC(=O)Nc1cc(-c2ccc(C)c(NS(C)(=O)=O)c2)nn2c(C)nnc12	77
CCc1ccc(OCc2ccccc2C(=O)Nc2ccc3nc(C)cc(N)c3c2)cc1.Cl	9
CCc1nn(CCCN2CCN(c3cccc(Cl)c3)CC2)c(=O)n1CCOc1ccccc1.Cl [NEFAZODONE HYDROCHLORIDE]	68
CNC(=O)Nc1ccc(-c2nc(N3CC4CCC(C3)O4)c3cnn(C4CCC5(CC4)OCCO5)c3n2)cc1	70
Cl.O=C(O)c1cc(-c2ccc(C3CCNCC3)cc2)c2ccc(-c3ccc(C(F)(F)F)cc3)cc2c1	64
CC(C)(C)NC[C@H](O)COc1nsnc1N1CCOCC1	36
C[C@]12CC[C@@H]3c4ccc(O)cc4CC[C@H]3[C@@H]1CC[C@@H]2O	100
CN1CCN(Cc2ccc(Nc3ncc(Cl)c(Nc4ccccc4S(=O)(=O)N(C)C)n3)cc2)CC1	11
Cc1ccccc1C(c1ccccc1C)N1C2CCC1CC(O)(c1ccccc1)C2 (centres undefined)	88
